metric: melting point

Tell us which melting point value is on record for COc1ccc(-c2cnn3c(N)c(-c4cccc(Cl)c4)c(C)nc23)cc1
171 to 172 °C

Tell us which melting point value is on record for COc1ccc(-c2cnn3c(N)c(-c4ccc(F)c(Cl)c4)c(C)nc23)cc1
224 to 227 °C

Tell us which melting point value is on record for CCN(CC)C1CCN(c2cccc(-c3cnn4c(N)c(-c5cccc(Cl)c5)c(C)nc34)c2)CC1
163 to 168 °C

Tell us which melting point value is on record for CN(C)c1ccc(-c2cnn3c(N)c(-c4ccc(NS(=O)(=O)c5cccc(Cl)c5Cl)cc4)cnc23)cc1
143 to 146 °C

Tell us which melting point value is on record for Cc1nc2c(-c3cccc(N4CCN(C5CCN(C)CC5)CC4)c3)cnn2c(N)c1-c1cccc(Cl)c1
180 to 185 °C

---

Property: melting point; scope: individual compounds

Tell us which melting point value is on record for CN1CCN(c2cccc(-c3cnn4c(N)c(-c5ccccc5Cl)cnc34)c2)CC1
200 to 203 °C

Tell us which melting point value is on record for COc1ccc(-c2cnn3c(N)c(-c4ccc(F)cc4)c(C)nc23)cc1
243 to 244 °C

Tell us which melting point value is on record for COc1ccc(-c2cnn3c(N)c(-c4ccc(F)c(Cl)c4)c(C)nc23)cc1OC
235 to 238 °C

Tell us which melting point value is on record for COc1ccc(-c2cnn3c(N)c(-c4cccc(Cl)c4)c(CF)nc23)cc1OC
228 to 230 °C

Tell us which melting point value is on record for CN1CCN(c2cccc(-c3cnn4c(N)c(Cc5ccccc5)cnc34)c2)CC1
72 to 75 °C

Tell us which melting point value is on record for CN1CCN(c2ccc(-c3cnn4c(N)c(-c5ccccc5Cl)cnc34)cc2)CC1
197 to 200 °C

Tell us which melting point value is on record for COc1ccc(-c2cnn3c(N)c(-c4cccc(Cl)c4)c(C)nc23)cc1OC
223 to 226 °C

Tell us which melting point value is on record for Cc1nc2c(-c3cccc(N4CCN(CCO)CC4)c3)cnn2c(N)c1-c1ccc(F)c(F)c1
172 to 174 °C

---

metric: melting point

1) CCN(CC)C1CCN(c2cccc(-c3cnn4c(N)c(-c5ccc(F)cc5)c(C)nc34)c2)CC1 [Example 112]: 208 to 210 °C
2) Cc1nc2c(-c3cccc(N4CCN(CCO)CC4)c3)cnn2c(N)c1-c1ccc(F)c(Cl)c1 [Compound 4]: 104 to 107 °C
3) CN(C)c1ccc(-c2cnn3c(N)c(-c4ccc(OS(=O)(=O)c5ccc(Cl)cc5)cc4)cnc23)cc1 [Example 18]: 186 to 191.88 °C

Tell us which melting point value is on record for Cc1nc2c(-c3cccc(N4CCN(C)CC4)c3)cnn2c(N)c1-c1cccc(Br)c1 [Example 91]
107 to 113 °C
